test system: KM12 colon; experiment: NCI tumour cell line growth inhibition, 48 h
Please go through the items and note down their TGI.

Query string: Requested read-out: TGI. Entry: CC1(C)N(OC2CCCCO2)C(c2ccccc2)C(c2ccccc2)=[N+]1[O-] (stereo not drawn)
Result string: > 100 µM

Query string: Requested read-out: TGI. Entry: CC1=Nc2nc3ccccc3n2C(C)(C)C1
Result string: > 100 µM

Query string: Requested read-out: TGI. Entry: CCOC(=O)NC(=O)c1cn(CCCCCOC(=O)NCCCCCCNC(=O)OCCCCCn2cc(C(=O)NC(=O)OCC)c(=O)[nH]c2=O)c(=O)[nH]c1=O
Result string: > 100 µM

Query string: Requested read-out: TGI. Entry: Brc1ccccc1/C=C\C1(c2ccccc2)OCCO1
Result string: 7.17 µM

Query string: Requested read-out: TGI. Entry: C=C1C(=O)O[C@H]2[C@H]1CC/C(COC(=O)/C=C\C(=O)NCc1ccc(Cn3c(=O)sn(-c4ccc(OC)cc4)c3=O)cc1)=C\CC[C@@]1(C)O[C@@H]21
Result string: 1.81 µM

Query string: Requested read-out: TGI. Entry: C[C@]12CCC3[C@@H](C[C@H]4OC(=O)[C@@]35CCC(=O)C=C45)C1CCC2=O (stereo partly drawn)
Result string: > 100 µM

Query string: Requested read-out: TGI. Entry: COc1ccc(/C=C2\N=C(c3ccccc3)N(c3cc(C(F)(F)F)ccc3Cl)C2=O)cc1OC
Result string: > 100 µM

Query string: Requested read-out: TGI. Entry: COc1ccc2nc3cc(Cl)ccc3c(NCCC(=O)OCC(O)C(O)C(O[C@H](C)C(=O)NC(C)C(=O)NC(CCC(N)=O)C(=O)OCc3ccccc3)C(C=O)NC(C)=O)c2c1 (stereo partly drawn)
Result string: 41.7 µM

----------
test system: SF-268 CNS; test: NCI tumour cell line growth inhibition, 48 h
Please go through the items and note down their TGI.

Query string: Requested read-out: TGI. Entry: Nc1ccccc1/C=N\Nc1ccccc1
Result string: > 100 µM

Query string: Requested read-out: TGI. Entry: Cc1cccc2nc3n(c12)C(=O)c1ccccc1-3
Result string: > 100 µM

Query string: Requested read-out: TGI. Entry: C=C[C@@]1(C)CC2CC[C@]3(C)C(C)=CC(=O)CC3[C@]2(C)CC1O (some centres undefined)
Result string: > 100 µM

Query string: Requested read-out: TGI. Entry: COC(=O)NNc1c([N+](=O)[O-])cnn(-c2ccccc2)c1=O
Result string: 7.71 µM

Query string: Requested read-out: TGI. Entry: O=C(O)CN(CC(=O)O)Cc1cc2c(cc1O)Oc1cc(O)c(CN(CC(=O)O)CC(=O)O)cc1C21OC(=O)c2ccccc21
Result string: > 100 µM

Query string: Requested read-out: TGI. Entry: O=c1oc2c3ccc4ccccc4c3n(CCN3CCOCC3)c2c2ccccc12
Result string: > 100 µM

Query string: Requested read-out: TGI. Entry: Cc1ccc(C2(C)NC(=S)N(NC(N)=S)C2=S)cc1 (centres undefined)
Result string: > 100 µM

Query string: Requested read-out: TGI. Entry: Cn1c(=O)nc2n(CCO)ccnc-2c1=O
Result string: > 100 µM

Query string: Requested read-out: TGI. Entry: COc1ccc(/C=C2\N=C(c3ccccc3)N(c3cc(C(F)(F)F)ccc3Cl)C2=O)cc1OC
Result string: > 100 µM

Query string: Requested read-out: TGI. Entry: Cc1c(C)c(S(=O)(=O)N(CCCCCN)OCCCN)c(C)c2c1OC(C)(C)CC2
Result string: 28.5 µM

Query string: Requested read-out: TGI. Entry: C=CC1(c2ccc3ccccc3c2)OCC(CC)(CC)CO1
Result string: 95.6 µM

Query string: Requested read-out: TGI. Entry: Nc1ccc2cc(S(=O)(=O)O)cc(O)c2c1N=Nc1ccc(NC(=O)Nc2ccc(N=Nc3c(N)ccc4cc(S(=O)(=O)O)cc(O)c34)c(S(=O)(=O)O)c2)cc1S(=O)(=O)O
Result string: > 100 µM

Query string: Requested read-out: TGI. Entry: COc1ccc(N2C(=O)CSC2c2cc3cc(Br)ccc3nc2Cl)cc1 (centres undefined)
Result string: > 50 µM

Query string: Requested read-out: TGI. Entry: O=C(N1CCOCC1)C1(c2ccccc2)CCNCC1
Result string: > 100 µM

Query string: Requested read-out: TGI. Entry: COc1ccc2nc3cccc([N+](=O)[O-])c3c(NCCN(CCO)CCO)c2c1
Result string: 0.234 µM

Query string: Requested read-out: TGI. Entry: COCC[N+](CCNC(=O)c1cccc2c(N)c3cccc(C)c3nc12)(CCOC)Cc1ccc([N+](=O)[O-])cc1
Result string: 87.5 µM

Query string: Requested read-out: TGI. Entry: CC(C)=CCC[C@](C)(O)[C@H]1CC[C@]2(C)[C@@H]1[C@H](O)C[C@@H]1[C@@]3(C)CC[C@H](O[C@@H]4O[C@H](CO)[C@@H](O)[C@H](O)[C@H]4O)C(C)(C)[C@@H]3CC[C@]12C
Result string: 29.3 µM

Query string: Requested read-out: TGI. Entry: Cc1ccc(Cl)cc1Nc1nc(C(F)(F)F)ccc1C(=O)N/N=C/c1c(Cl)cccc1Cl
Result string: 13.4 µM

Query string: Requested read-out: TGI. Entry: Cc1ccc(S(=O)(=O)c2c(N)c3nccn3c3nc4ccccc4nc23)cc1
Result string: > 100 µM

----------
test system: NCI-H226 lung; test: NCI tumour cell line growth inhibition, 48 h
measured-property: TGI

Query string: Requested read-out: TGI. Entry: O=C1CSC(=S)N1c1ccc(F)cc1F
Result string: > 100 µM

Query string: Requested read-out: TGI. Entry: O=C(CSc1nc2ccc([N+](=O)[O-])cc2[nH]1)Nc1cccc(Cl)c1
Result string: 9.93 µM

Query string: Requested read-out: TGI. Entry: COc1cc(C(=O)NC2CCN(C)CC2)ccc1Nc1ncc2c(n1)N(C1CCCC1)CC(F)(F)C(=O)N2C
Result string: 14.3 µM

Query string: Requested read-out: TGI. Entry: Cn1c(=O)cc(NNc2ccc(Br)cc2)[nH]c1=O
Result string: 39.1 µM

Query string: Requested read-out: TGI. Entry: COc1ccc(C2=NN(C(=O)c3ccccc3)C(O)(c3cc(F)c(Cl)cc3Cl)C2)cc1OC (configuration not stated)
Result string: > 100 µM

Query string: Requested read-out: TGI. Entry: CC1=C2C(=O)C3[C@@H](CCC4=CC(=O)CC[C@@]43C)C2CC[C@]12O[C@@H]1C[C@H](C)CN[C@H]1[C@H]2C (some centres not stated)
Result string: > 100 µM

Query string: Requested read-out: TGI. Entry: COc1cc(C2c3cc4c(cc3OC3(O)COC(=O)C23)OCO4)cc(OC)c1OC (configuration not stated)
Result string: > 100 µM

Query string: Requested read-out: TGI. Entry: CC1(C)CC[C@]2(C(=O)n3ccnc3)CC[C@]3(C)[C@H](C(=O)C=C4[C@@]5(C)C=C(C#N)C(=O)C(C)(C)[C@@H]5CC[C@]43C)[C@@H]2C1
Result string: < 0.0499 µM

Query string: Requested read-out: TGI. Entry: CCCCC(NC(=O)CC)C(=O)O (configuration not stated)
Result string: > 100 µM

Query string: Requested read-out: TGI. Entry: Cc1nc2c(O)cccc2c(=O)[nH]1
Result string: > 1000 µM

Query string: Requested read-out: TGI. Entry: C(=N/Nc1ncnc2nc[nH]c12)/c1ccccn1
Result string: 53.1 µM

Query string: Requested read-out: TGI. Entry: CNc1nnnn1C1OC(CO)C(O)C1O (configuration not stated)
Result string: > 100 µM

Query string: Requested read-out: TGI. Entry: Cc1c(C)c(S(=O)(=O)N(CCCCCN)OCCCN)c(C)c2c1OC(C)(C)CC2
Result string: 32.7 µM

Query string: Requested read-out: TGI. Entry: COc1ccc(-c2nc(N)c(C#N)c3c2CCSc2ccc(C)cc2-3)cc1OC
Result string: > 70.9 µM

Query string: Requested read-out: TGI. Entry: COc1ccc2c(c1)CCc1cnn(C3OC(COC(C)=O)C(OC(C)=O)C(OC(C)=O)C3OC(C)=O)c1-2 (configuration not stated)
Result string: > 100 µM

Query string: Requested read-out: TGI. Entry: CN(C)c1ccc(/C=C(\C#N)c2cc3ccccc3n2C)cc1
Result string: > 100 µM

Query string: Requested read-out: TGI. Entry: CC(=O)OCc1cccc(O)c1C(=O)CCC=C(C)C
Result string: > 100 µM

Query string: Requested read-out: TGI. Entry: CC1=NN(C(=O)CC(=O)Nc2ccccc2C)C(=O)C1N=Nc1ccc(S(=O)(=O)c2ccc(N=NC3C(=O)N(C(=O)CC(=O)Nc4ccccc4C)N=C3C)cc2)cc1 (configuration not stated)
Result string: > 100 µM

Query string: Requested read-out: TGI. Entry: CC1(C)Cc2cccc(OCC(O)CN3CCN(c4ccc(F)cc4)CC3)c2O1 (configuration not stated)
Result string: > 50 µM

Query string: Requested read-out: TGI. Entry: CCN(CC)CCCC(C)NC(=O)c1cc(-c2nccn2C)nc2ccc(C)cc12 (configuration not stated)
Result string: > 100 µM

Query string: Requested read-out: TGI. Entry: COc1ccc(NC(=O)CC/C(CC(=O)c2ccccc2Cl)=N\Nc2nnc(C)n2N)cc1
Result string: > 100 µM

Query string: Requested read-out: TGI. Entry: C=CC1(c2ccc3ccccc3c2)OCC(CC)(CC)CO1
Result string: 33.4 µM

Numbers sourced from PubChem BioAssay (NCI).
